- Tested on: SNB-75 CNS
- PROTOCOL: NCI-60 one-dose screen, 48 h
- STATED CONDITIONS: 10 µM unless noted
The panel holds about 83,000 compounds, 20% with a hit somewhere; the sample as a whole holds those more often. Active and inactive are the calls of the source. The calls were made as follows: active = growth percent below 10; inactive = the rest.
Please state which outcome applies, choosing from TRUE (active), FALSE (inactive)

[in] I'd appreciate the recorded outcome for COc1ccc(C2=Nc3c(N)ncnc3NC(c3ccc4c(c3)OCO4)C2)cc1 (stereo unspecified) from this test.
[out] FALSE

[in] I'd appreciate the recorded outcome for C#Cc1cccc(NC(=O)c2ccc(NC(=O)CCl)cc2)c1 from this test.
[out] FALSE

[in] I'd appreciate the recorded outcome for COc1ccc2c(c1)CCCN2c1c2ccccc2nc2ccccc12 from this test.
[out] TRUE

[in] Which outcome was entered for the compound COc1cc(OC)cc(C2CC(=O)Nc3c2c(C)nn3-c2nc3ccccc3[nH]2)c1 (stereo unspecified) in this test?
[out] TRUE

[in] Could you please tell me the result logged for CC(C)Sc1nc(NNC(N)=S)c(C#N)c(-c2ccc(F)cc2)n1 in this assay?
[out] FALSE

[in] Tell me the recorded outcome of this test for CC(C)=C[C@@H]1c2c(c3ccccc3n(C)c2=O)O[C@H]2c3c(c4ccccc4n(C)c3=O)OC(C)(C)[C@@H]12 .
[out] FALSE

[in] Outcome logged for COc1ccc(NC(=O)CSc2nc(C)c(C(C)=O)n2-c2ccc([N+](=O)[O-])cc2)cc1 in this assay:
[out] FALSE

[in] Test call, this compound: COc1ccc2[nH]c(O)c(/C=c3/cc4c(c(-c5cc(OC)c(OC)c(OC)c5)n3)=Nc3ccccc3-4)c2c1
[out] FALSE

[in] How did this test come out for COc1cc2nc(Cl)nc(Nc3ccc(S(=O)(=O)Nc4nccs4)cc3)c2cc1OC ?
[out] FALSE

[in] Returns: the outcome recorded for N#CCN1C(=O)C2C3=C(CCCC3)SC2N=C1CN1CCCC1 (stereo unspecified) in this assay.
[out] FALSE

[in] In this assay, the call recorded for Cc1ccc(-c2cc(-c3cccnc3)[nH]c(=O)c2C#N)cc1 was what?
[out] FALSE

[in] Hi, sorry to bother you, what did the test record for COc1ccc(-c2c(N)n[nH]c2-c2ccc(Cl)cc2O)cc1OC ?
[out] FALSE

[in] Please share the test call associated with Cc1ccc(-c2c(-c3ccccc3)c(=O)oc3ccc(C)cc23)cc1 .
[out] FALSE

[in] For CC1=CN2C(=O)C3C4=C(CCCC4)SC3N=C2CN1c1c(C)cccc1C (stereo unspecified) , what call appears in the results of this test?
[out] FALSE

[in] For this compound, state the assay outcome: CCOC(=O)c1c2ncccc2n2c(=O)n(-c3ccccc3C)nnc12
[out] FALSE

[in] Per the assay record, what outcome was assigned to NNC(=O)c1nc(N)n(-c2ccc(S(N)(=O)=O)cc2)n1 ?
[out] FALSE

[in] Write down the call the test reported for this compound. Item: CCOc1c(C#N)nnc2c(C#N)c(NC(=O)c3ccccc3)nn12
[out] FALSE

[in] Called result for c1ccc(Nc2nc(-c3ccccn3)cs2)nc1
[out] FALSE

[in] Could you check what this test reported for C=CCSc1nc2ccccc2cc1/C=N/O ?
[out] FALSE

[in] Entry Cc1ccc(-c2cc3c(cc2O)C2CCCCC2(N2CCOCC2)O3)cc1 (stereo unspecified) : call = ?
[out] FALSE

[in] Which outcome was entered for the compound C=C1C(=O)O[C@H]2[C@H]1CC/C(COC(=O)C(=O)c1c[nH]c3ccccc13)=C\CC[C@@]1(C)O[C@@H]21 in this test?
[out] TRUE
